Entry source: paper PMC7413254

Can you tell me activity at 45000 µM for the items I'm about to list?
- target: PfCRT^Ecu1110 (Plasmodium falciparum, UniProt Q9N623, A220S/I356L/K76T/N326D)
- procedureText: cell-based
- Format: cell-based
- assayConditions: […], pH 5.5, read-out: Uptake of [3H]CQ (% PfCRTEcu1110 control), trans-stimulation, PfCRTEcu1110 oocytes; [test solute]i = 45 mM (30 mM for some solutes due to solubility); total [3H]CQ transport, normalised to the oocyte type control
Numbers only, in %.

These recorded examples may help you get a feel for the data.
N=C(N)NCCC[C@H](N)C(=O)O ... 99
N[C@@H](CS)C(=O)O ... 100
N[C@@H](Cc1ccc(O)cc1)C(=O)O ... 100

# input for lookup
Prompt: Observed activity at 45000 µM on PfCRT^Ecu1110 (Plasmodium falciparum, UniProt Q9N623, A220S/I356L/K76T/N326D) for CC[C@H](C)[C@H](N)C(=O)O , please.
Response: 99

----------
Can you tell me inhibition at 1000 µM for the items I'm about to list?
- target: PfCRT^Ecu1110 (Plasmodium falciparum, UniProt Q9N623, A220S/I356L/K76T/N326D)
- procedureText: [3H]CQ uptake into Xenopus oocytes, cis-inhibition by unlabelled solute
- Type: cell-based
- assayConditions: read-out: [3H]CQ transport (% PfCRTEcu1110 control), cis-inhibition, PfCRTEcu1110; SEM
Please format your answer as a value with the unit trailing.

NC(=O)CC[C@H](N)C(=O)O [L-glutamine] ... 29%

Look up inhibition at 1000 µM for the entries below, preserving their order.
1. CC[C@H](C)[C@H](N)C(=O)O [L-isoleucine]
2. N[C@@H](CCC(=O)O)C(=O)O [L-glutamic acid]

Response:
30%
28%

----------
- target: PfCRT^Ecu1110 (Plasmodium falciparum, UniProt Q9N623, A220S/I356L/K76T/N326D)
- procedureText: cell-based
- Type: cell-based
- assayConditions: footnote b: highest intracellular concentration tested was 30 mM (solubility); mean ± SEM; SEM
Can you tell me Trans-stimulation: total [3H]CQ transport, PfCRTEcu1110 oocytes for the items I'm about to list?

VHLTPEEKSAVT [VT-12] ... 33 ± 1.6b % of PfCRTDd2 control
YFPHFDLS [YS-8] ... 32 ± 1.9b % of PfCRTDd2 control
GTFATLSELHCDK [GK-13] ... 32 ± 1.5b % of PfCRTDd2 control
LTPEEKSAVTAL [LL-12] ... 33 ± 1.0b % of PfCRTDd2 control

Prompt: Form field: reported Trans-stimulation: total [3H]CQ transport, PfCRTEcu1110 oocytes of VEPSDTIENVK [VK-11]
Response: 42 ± 2.1b % of PfCRTDd2 control

----------
- target: PfCRT^Dd2 (Plasmodium falciparum, UniProt Q9N623, A220S/I356T/K76T/M74I/N326S/N75E/Q271E/R371I)
- Sequence (Q9N623 whole entry A220S/I356T/K76T/M74I/N326S/N75E/Q271E/R371I): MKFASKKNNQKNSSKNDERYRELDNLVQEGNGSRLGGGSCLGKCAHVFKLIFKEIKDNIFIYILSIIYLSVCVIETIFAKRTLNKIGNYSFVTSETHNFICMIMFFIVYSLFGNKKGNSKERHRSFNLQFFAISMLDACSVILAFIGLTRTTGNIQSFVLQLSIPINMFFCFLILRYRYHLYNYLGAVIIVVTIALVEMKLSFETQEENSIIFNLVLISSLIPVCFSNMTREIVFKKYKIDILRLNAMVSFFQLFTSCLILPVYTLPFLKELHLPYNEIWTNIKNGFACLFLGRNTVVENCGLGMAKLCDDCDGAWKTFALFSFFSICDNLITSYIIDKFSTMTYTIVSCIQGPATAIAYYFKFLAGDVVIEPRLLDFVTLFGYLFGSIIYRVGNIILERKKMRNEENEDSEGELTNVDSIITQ
- procedureText: [3H]CQ uptake into Xenopus oocytes, cis-inhibition by unlabelled solute
- Assay type: cell-based
- assayConditions: [test solute] = 1 mM; PfCRTDd2 oocytes; background [3H]CQ accumulation subtracted; normalised to oocyte type control
Outcome label depends on PfCRT-mediated [3H]CQ transport, cis-inhibition (% PfCRTDd2 control) relative to 30 % PfCRTDd2 control: at/above gives 1, below gives 0.

Here's what some known entries look like.
AEALERMF [AF-8] ... 1
VHLTPEEK [VK-8] ... 1

Prompt: Confirm if PfCRT-mediated [3H]CQ transport, cis-inhibition (% PfCRTDd2 control) reported for the substance YFPHFDLS [YS-8] is 30 % PfCRTDd2 control or above.
Response: 0

Prompt: Confirm if PfCRT-mediated [3H]CQ transport, cis-inhibition (% PfCRTDd2 control) reported for the substance VDEVGG [VG-6] is 30 % PfCRTDd2 control or above.
Response: 1

Prompt: Confirm if PfCRT-mediated [3H]CQ transport, cis-inhibition (% PfCRTDd2 control) reported for the substance FSDGLA [FA-6] is 30 % PfCRTDd2 control or above.
Response: 0

Prompt: Confirm if PfCRT-mediated [3H]CQ transport, cis-inhibition (% PfCRTDd2 control) reported for the substance HVDPENFRL [HL-9] is 30 % PfCRTDd2 control or above.
Response: 1

Prompt: Confirm if PfCRT-mediated [3H]CQ transport, cis-inhibition (% PfCRTDd2 control) reported for the substance LSFPTTK [LK-7] is 30 % PfCRTDd2 control or above.
Response: 1
